Kindly supply the reported IC50 values for the records listed here.
- Tested on: PC-3 cells
- Protocol: Antiproliferative activity, Alamar Blue assay, PC-3 cells
- Format: cell-based, human
- Measurement Setup: Homo sapiens, PC-3, PC3 cells, Alamar Blue; read-out: PC3 antiproliferative activity pIC50 (converted)
Report as a plain number; the unit nM is understood.

// recorded IC50 for CCc1cc2ccc(C(C)(C#N)Cc3ccc4ccccc4n3)cc2[nH]c1=O (stereo not shown) : 2510

// recorded IC50 for CCc1cc2ccc(C(C)(C#N)Cc3nc4ccccc4n3C)cc2[nH]c1=O (stereo not shown) : 2000

// recorded IC50 for CCc1cc2ccc([C@](C)(C#N)[C@H](C)c3ccccc3)cc2[nH]c1=O : 1000

// recorded IC50 for CCc1cc2ccc([C@@](C)(C#N)Cc3cccc(C#N)c3)cc2[nH]c1=O (single isomer, unassigned) : 10000

---

- Study Target: TANK-2 enzyme (Homo sapiens)
- Construct: made in house
- Protocol: In vitro Scintillation Proximity Assay (SPA) for TANK-2 inhibitory activity
- Type: biochemical
- Measurement Setup: read-out: in vitro SPA assay TANK-2 pIC50 (converted)
So basically, if IC50 comes in under 300 nM it's label 1, and if it's 300 nM or more it's label 0.

Prompt: # strict comparison: is reported IC50 < 300 nM? input = CCc1cc2ccc([C@@](C)(C#N)CN(C)Cc3ccc(C#N)cc3)cc2[nH]c1=O (single isomer, unassigned)
Response: label 1

Prompt: # strict comparison: is reported IC50 < 300 nM? input = CCc1c(C)c2ccc(C(C)(C#N)Cc3cccc(C#N)c3)cc2[nH]c1=O (stereo not shown)
Response: label 1

Prompt: # strict comparison: is reported IC50 < 300 nM? input = CCc1cc2ccc([C@](C)(C#N)C[C@@H]3Cc4cc(C)ccc4O3)cc2[nH]c1=O (single isomer, unassigned)
Response: label 0

Prompt: # strict comparison: is reported IC50 < 300 nM? input = Cc1cc2ccc(C(C)(C#N)Cc3nc4ccccc4s3)cc2[nH]c1=O (stereo not shown)
Response: label 1

Prompt: # strict comparison: is reported IC50 < 300 nM? input = CCc1cc2ccc(C(C)(C#N)Cc3c(C)cccc3C)cc2[nH]c1=O (stereo not shown)
Response: label 1

Prompt: # strict comparison: is reported IC50 < 300 nM? input = CCc1cc2ccc(C(C)(C#N)COCc3ccccc3)cc2[nH]c1=O (stereo not shown)
Response: label 1

Prompt: # strict comparison: is reported IC50 < 300 nM? input = CCc1cc2ccc(C(C)(C#N)CC3COc4ccccc4O3)cc2[nH]c1=O (single isomer, unassigned) [Compound 47]
Response: label 0

---

Kindly supply the reported IC50 values for the records listed here.
- Study Target: TANK-2 enzyme (Homo sapiens)
- Construct: made in house
- Sequence (Q9H2K2 1-1166): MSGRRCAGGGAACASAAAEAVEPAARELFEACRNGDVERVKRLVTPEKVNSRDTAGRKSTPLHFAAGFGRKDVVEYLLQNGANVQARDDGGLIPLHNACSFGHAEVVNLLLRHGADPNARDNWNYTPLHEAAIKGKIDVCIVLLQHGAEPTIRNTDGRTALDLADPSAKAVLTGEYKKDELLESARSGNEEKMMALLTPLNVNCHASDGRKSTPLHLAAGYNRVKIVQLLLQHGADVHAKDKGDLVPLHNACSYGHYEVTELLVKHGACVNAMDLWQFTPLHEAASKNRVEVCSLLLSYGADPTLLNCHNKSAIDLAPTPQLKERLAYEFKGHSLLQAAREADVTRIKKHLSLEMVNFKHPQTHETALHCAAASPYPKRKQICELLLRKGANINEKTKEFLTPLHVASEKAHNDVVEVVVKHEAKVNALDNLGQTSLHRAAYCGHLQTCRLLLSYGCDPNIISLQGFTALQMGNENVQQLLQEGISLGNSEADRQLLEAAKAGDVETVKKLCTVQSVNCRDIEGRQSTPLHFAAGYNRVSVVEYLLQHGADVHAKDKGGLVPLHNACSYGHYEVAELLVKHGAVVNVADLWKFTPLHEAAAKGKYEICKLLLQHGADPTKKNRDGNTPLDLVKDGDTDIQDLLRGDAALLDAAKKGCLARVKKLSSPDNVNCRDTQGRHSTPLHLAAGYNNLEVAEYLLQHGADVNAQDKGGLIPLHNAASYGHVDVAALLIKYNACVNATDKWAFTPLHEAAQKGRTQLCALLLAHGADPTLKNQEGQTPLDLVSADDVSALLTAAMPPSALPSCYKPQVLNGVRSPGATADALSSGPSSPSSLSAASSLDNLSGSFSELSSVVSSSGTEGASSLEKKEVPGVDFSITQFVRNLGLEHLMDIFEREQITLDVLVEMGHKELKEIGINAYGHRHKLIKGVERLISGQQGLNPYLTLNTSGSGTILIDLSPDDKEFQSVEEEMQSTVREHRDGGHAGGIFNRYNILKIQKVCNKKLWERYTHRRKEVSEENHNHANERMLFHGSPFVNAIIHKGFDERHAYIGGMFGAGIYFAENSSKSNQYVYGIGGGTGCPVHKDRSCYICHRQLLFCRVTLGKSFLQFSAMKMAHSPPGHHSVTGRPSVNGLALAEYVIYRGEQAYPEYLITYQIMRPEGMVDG
- Protocol: In vitro Scintillation Proximity Assay (SPA) for TANK-2 inhibitory activity
- Format: biochemical
- Measurement Setup: read-out: in vitro SPA assay TANK-2 pIC50 (converted)
Report as a plain number; the unit µM is understood.

// recorded IC50 for Cc1cc2ccc(C(C)(C#N)Cc3cccc(Oc4ccccc4)c3)cc2[nH]c1=O (stereo not drawn) : 1.58

// recorded IC50 for CCc1cc2ccc(C(C)(C#N)Cc3cccc(C)c3F)cc2[nH]c1=O (stereo not drawn) : 0.0631

// recorded IC50 for CCc1cc2c(OC)cc(C(C)(C#N)Cc3nc(OC)cc(OC)n3)cc2[nH]c1=O (stereo not drawn) [Compound 229] : 0.01

// recorded IC50 for CCc1cc2ccc(C(C)(C#N)Cc3ccc4nccnc4c3)cc2[nH]c1=O (stereo not drawn) : 0.0501

// recorded IC50 for Cc1cc2ccc(C(C)(C#N)Cc3cccc(C#N)c3)cc2[nH]c1=O (stereo not drawn) : 0.0316

// recorded IC50 for CCc1cc2ccc(C(C)(C#N)Cc3cccc(OCCC#N)c3)cc2[nH]c1=O (stereo not drawn) : 0.398

// recorded IC50 for CCc1cc2ccc(C(C)(C#N)Cc3cccc(N4CCN(C)CC4)c3)cc2[nH]c1=O (stereo not drawn) : 0.0316

// recorded IC50 for Cc1cc2ccc(C(C)(C#N)Cc3cc4ccccc4s3)cc2[nH]c1=O (stereo not drawn) : 0.251

// recorded IC50 for CCc1cc2ccc(C(C)(C#N)Cc3cc(C#N)cc4c3OCC4)cc2[nH]c1=O (stereo not drawn) : 0.0316

// recorded IC50 for CCc1cc2ccc(C(C)(C#N)Cc3ccc(Br)cc3)cc2[nH]c1=O (stereo not drawn) : 0.0316

// recorded IC50 for CCc1cc2ccc(C(C#N)(CC)Cc3ccccc3)cc2[nH]c1=O (stereo not drawn) : 0.0794

// recorded IC50 for CCc1cc2ccc(C(C)(C#N)Cc3nccc(OCCOC)n3)cc2[nH]c1=O (stereo not drawn) : 0.631

// recorded IC50 for CCc1cc2ccc(C(C)(C#N)CCOc3ccc(OC)cc3)cc2[nH]c1=O (stereo not drawn) : 0.0794

// recorded IC50 for CCc1cc2ccc(C(C)(C#N)Cc3cccc(COC)c3)cc2[nH]c1=O (stereo not drawn) : 0.0794

// recorded IC50 for CCc1cc2ccc(C(C)(C#N)Cc3ccc(C(F)(F)F)cc3)cc2[nH]c1=O (stereo not drawn) : 0.126

// recorded IC50 for CCc1cc2ccc(C(C)(C#N)Cc3ccccc3F)cc2[nH]c1=O (stereo not drawn) : 0.0501

// recorded IC50 for CC(C#N)(Cc1ccccc1)c1ccc2cc(CO)c(=O)[nH]c2c1 (stereo not drawn) : 0.158

// recorded IC50 for CCc1cc2ccc(C(C)(C#N)CCOc3ccc(C)cc3)cc2[nH]c1=O (stereo not drawn) : 0.2

---

- Study Target: Human PARP-1 enzyme (Homo sapiens, UniProt P09874)
- Construct: purchased Trevigen
- Sequence (P09874 whole entry): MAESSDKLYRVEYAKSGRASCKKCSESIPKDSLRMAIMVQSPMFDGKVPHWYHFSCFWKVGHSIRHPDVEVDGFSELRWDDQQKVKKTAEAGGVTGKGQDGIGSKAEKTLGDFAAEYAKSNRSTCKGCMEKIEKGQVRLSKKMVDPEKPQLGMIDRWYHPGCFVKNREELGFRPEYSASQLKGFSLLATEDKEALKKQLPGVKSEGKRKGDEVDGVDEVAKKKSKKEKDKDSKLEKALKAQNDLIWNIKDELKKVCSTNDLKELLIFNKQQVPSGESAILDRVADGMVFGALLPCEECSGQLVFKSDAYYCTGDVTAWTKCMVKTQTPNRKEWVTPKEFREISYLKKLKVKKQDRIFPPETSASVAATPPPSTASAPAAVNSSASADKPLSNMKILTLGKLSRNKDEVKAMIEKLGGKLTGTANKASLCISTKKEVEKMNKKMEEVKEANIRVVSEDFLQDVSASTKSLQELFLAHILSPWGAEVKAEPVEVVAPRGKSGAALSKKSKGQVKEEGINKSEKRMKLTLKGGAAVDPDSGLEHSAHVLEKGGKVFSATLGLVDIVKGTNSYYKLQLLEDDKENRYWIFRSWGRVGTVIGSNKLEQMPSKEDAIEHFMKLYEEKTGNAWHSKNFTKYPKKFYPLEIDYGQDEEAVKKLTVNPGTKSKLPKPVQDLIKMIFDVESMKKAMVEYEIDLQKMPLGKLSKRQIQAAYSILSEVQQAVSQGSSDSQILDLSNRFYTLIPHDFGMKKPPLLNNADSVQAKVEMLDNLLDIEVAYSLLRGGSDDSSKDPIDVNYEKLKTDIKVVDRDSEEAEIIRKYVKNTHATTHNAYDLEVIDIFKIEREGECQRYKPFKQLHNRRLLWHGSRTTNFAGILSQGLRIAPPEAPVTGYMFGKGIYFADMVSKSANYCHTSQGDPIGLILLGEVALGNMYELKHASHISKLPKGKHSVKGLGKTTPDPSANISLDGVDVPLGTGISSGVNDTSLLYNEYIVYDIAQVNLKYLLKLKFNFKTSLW
- Protocol: In vitro Scintillation Proximity Assay (SPA) for PARP-1 inhibitory activity
- Format: biochemical
- Measurement Setup: read-out: in vitro SPA assay PARP-1 pIC50 (converted)
So basically, if IC50 comes in under 100 nM it's condition met, and if it's 100 nM or more it's condition not met.

Prompt: # strict comparison: is reported IC50 < 100 nM? input = CCc1cc2ccc(C(C)(C#N)Cc3cccc(C#CCN(C)C)c3)cc2[nH]c1=O (centres unmarked)
Response: condition not met

Prompt: # strict comparison: is reported IC50 < 100 nM? input = CCc1cc2ccc([C@](C)(C#N)Cc3cccc(C#N)c3)cc2[nH]c1=O (single isomer, unassigned)
Response: condition met

Prompt: # strict comparison: is reported IC50 < 100 nM? input = CCc1cc2ccc(C(C)(C#N)Cc3cccc(/C=C/S(C)(=O)=O)c3)cc2[nH]c1=O (centres unmarked)
Response: condition met

Prompt: # strict comparison: is reported IC50 < 100 nM? input = CCc1cc2ccc([C@](C)(C#N)Cc3ccccc3)cc2[nH]c1=O (single isomer, unassigned)
Response: condition not met

Prompt: # strict comparison: is reported IC50 < 100 nM? input = CCc1cc2ccc(C(C)(C#N)Cc3cccc4[nH]ccc34)cc2[nH]c1=O (centres unmarked)
Response: condition met

Prompt: # strict comparison: is reported IC50 < 100 nM? input = CCc1cc2ccc(C(C)(C#N)Cc3cc(OC)cc(OC)n3)cc2[nH]c1=O (centres unmarked)
Response: condition met

The measurements presented in this section are drawn from patent US8778966B2.
